Target: hP2Y14R (Homo sapiens)
Construct: expressed in transfected cells; host or cells: CHO cells
Sequence (Q15391 1-338): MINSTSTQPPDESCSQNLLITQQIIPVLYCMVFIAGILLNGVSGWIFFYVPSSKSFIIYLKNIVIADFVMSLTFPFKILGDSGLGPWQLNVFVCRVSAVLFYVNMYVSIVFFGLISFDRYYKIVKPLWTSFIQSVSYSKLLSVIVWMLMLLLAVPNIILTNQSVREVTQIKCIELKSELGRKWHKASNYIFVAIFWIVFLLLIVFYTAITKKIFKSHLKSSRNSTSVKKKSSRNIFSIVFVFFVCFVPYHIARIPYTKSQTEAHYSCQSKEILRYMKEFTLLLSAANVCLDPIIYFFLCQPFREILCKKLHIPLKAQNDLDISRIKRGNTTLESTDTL
Assay: Inhibition of fluorescent antagonist binding in whole hP2Y14R-expressing CHO cells (flow cytometry)
Details: Table 1; fluorescent antagonist 2, hP2Y14R-CHO cells, 3-4 determinations; read-out: IC50, hP2Y14R (μM, mean ± SEM)
property measured: IC50 (µM)
Report the figure in µM without appending any unit label.

Example molecules with recorded IC50:
1. O=C(O)c1ccc(-c2cc(C(=O)O)cc(-n3cc(-c4ccc(C(F)(F)F)cc4)nn3)c2)cc1	0.632
2. NC1(c2ccc(-c3cc(C(=O)O)cc(-n4cc(-c5ccc(C(F)(F)F)cc5)nn4)c3)cc2)CCC1	2
3. CC(=O)Nc1ccc(-c2cc(C(=O)O)cc(-n3cc(-c4ccc(C(F)(F)F)cc4)nn3)c2)cc1	0.811

Recorded IC50 (molecule NCCCNC(=O)c1ccc(-c2cc(C(=O)O)cc(-n3cc(-c4ccc(C(F)(F)F)cc4)nn3)c2)cc1 ): 0.588

Note to self: IC50 recorded for N#CCCc1ccc(-c2cc(C(=O)O)cc(-n3cc(-c4ccc(C(F)(F)F)cc4)nn3)c2)cc1 was 17.8

IC50 measured on NC(=O)Cc1ccc(-c2cc(C(=O)O)cc(-n3cc(-c4ccc(C(F)(F)F)cc4)nn3)c2)cc1 = 1.29

Form: molecule = NCC#Cc1ccc(-c2cc(C(=O)O)cc(-n3cc(-c4ccc(C(F)(F)F)cc4)nn3)c2)cc1 ; IC50 = 0.308

GET /value?item= O=C(O)c1cc(-c2ccc(CCCCO)cc2)cc(-n2cc(-c3ccc(C(F)(F)F)cc3)nn2)c1 &field=IC50 returns 9.22
